# TESTED_TARGET: AKT3 (Homo sapiens, UniProt Q9Y243)
# Sequence (Q9Y243 2-479): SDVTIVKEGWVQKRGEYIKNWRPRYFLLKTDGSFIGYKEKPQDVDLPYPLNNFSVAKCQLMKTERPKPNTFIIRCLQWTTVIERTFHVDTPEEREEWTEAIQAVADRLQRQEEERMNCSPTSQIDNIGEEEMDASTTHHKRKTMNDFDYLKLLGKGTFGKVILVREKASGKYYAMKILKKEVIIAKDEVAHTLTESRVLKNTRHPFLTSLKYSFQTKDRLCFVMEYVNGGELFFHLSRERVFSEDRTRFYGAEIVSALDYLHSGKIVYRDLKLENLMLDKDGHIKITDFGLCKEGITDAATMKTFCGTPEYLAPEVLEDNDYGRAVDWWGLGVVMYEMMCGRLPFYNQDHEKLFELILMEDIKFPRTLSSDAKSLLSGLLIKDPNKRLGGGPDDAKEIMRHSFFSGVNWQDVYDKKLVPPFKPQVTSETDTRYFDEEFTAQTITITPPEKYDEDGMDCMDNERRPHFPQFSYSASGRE
# Sequence (O15530 whole entry partner): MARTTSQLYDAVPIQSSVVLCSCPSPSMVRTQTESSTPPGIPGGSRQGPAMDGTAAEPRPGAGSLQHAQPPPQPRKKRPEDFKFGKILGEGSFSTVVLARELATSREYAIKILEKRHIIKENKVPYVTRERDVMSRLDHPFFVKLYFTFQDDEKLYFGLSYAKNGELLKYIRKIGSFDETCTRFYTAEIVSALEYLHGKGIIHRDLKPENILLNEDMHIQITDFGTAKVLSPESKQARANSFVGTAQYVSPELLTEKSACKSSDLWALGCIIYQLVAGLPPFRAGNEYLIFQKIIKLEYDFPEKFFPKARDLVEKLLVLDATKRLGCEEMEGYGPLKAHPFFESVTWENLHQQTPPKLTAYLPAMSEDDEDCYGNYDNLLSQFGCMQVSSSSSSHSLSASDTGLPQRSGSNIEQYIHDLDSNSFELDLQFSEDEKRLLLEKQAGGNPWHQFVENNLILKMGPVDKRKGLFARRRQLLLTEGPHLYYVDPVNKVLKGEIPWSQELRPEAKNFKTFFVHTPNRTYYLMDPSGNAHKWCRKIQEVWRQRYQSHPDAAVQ
pIC50: −log10 of the molar value.

>  <STRUCTURE_AS_SMILES>
CC(=O)N(C)[C@H]1CC[C@H](CC(=O)Nc2cc(-c3ccccc3)c(-c3ccc(C4(N)CCC4)cc3)cn2)CC1

>  <TESTED_TARGET>
AKT3 (Homo sapiens, UniProt Q9Y243)

>  <pIC50>
7.89

$$$$
